Test system: LOC_OS03G27990-cb004
Experiment: thermal shift delta Tm vs DMSO control; higher = stronger stabilization (binding);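 note: purified Escherichia coli-expressed rice kinase domain construct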
Details: 12.5 µM; protein concentration 2 µM
For each of the compounds below, state its thermal shift delta Tm.
Number first, unit second: that is the form wanted.

Supply thermal shift delta Tm value. Item: `Nc1ncnc2n[nH]c(Nc3ccc(F)cc3)c12`
3.38 °C

Please supply the value of reported thermal shift delta Tm for the item C=CC(=O)N1CCC(Oc2cc3c(Nc4ccc(Cl)c(Cl)c4F)ncnc3cc2OC)CC1 [Poziotinib (HM781-36B)]
0.49 °C

State, in one line, measured thermal shift delta Tm of `CC(C)(C)c1nc(-c2ccc(NC(=O)Nc3cccc(C(F)(F)F)c3)c3ccccc23)c2c(N)nccn12`
7.11 °C

For the compound `CN(C)CCCn1cc(C2=C(c3c[nH]c4ccccc34)C(=O)NC2=O)c2ccccc21` , give its reported thermal shift delta Tm.
0.5 °C

Could you please provide reported thermal shift delta Tm for `CCCS(=O)(=O)Nc1ccc(F)c(C(=O)c2c[nH]c3ncc(Cl)cc23)c1F` ? Thanks!
0.46 °C

---

Tested on: LOC_OS05G30820-cb001
Assay: thermal shift delta Tm vs DMSO control; higher = stronger stabilization (binding)
Conditions: 12.5 µM; protein concentration 2 µM
Note to self: values exactly at 0.7 °C are condition met. So thermal shift delta Tm at or above 0.7 °C is condition met, below is condition not met.

Kindly determine if thermal shift delta Tm recorded for `N#Cc1ccc2[nH]c(O)c(-c3ccc(CN4CCOCC4)cn3)c2c1` is above or exactly 0.7 °C.
condition not met

Evaluate `CNC(=O)c1nn(C)c2c1C(C)(C)Cc1cnc(Nc3ccc(N4CCN(C)CC4)cc3)nc1-2` : thermal shift delta Tm at minimum 0.7 °C?
condition not met

thermal shift delta Tm >= 0.7 °C for CNC(=O)c1cc(Oc2ccc(NC(=O)Nc3ccc(Cl)c(C(F)(F)F)c3)cc2)ccn1 [Sorafenib] ?
condition not met

Given `CN(C)C/C=C/C(=O)Nc1ccc(C(=O)Nc2cccc(Nc3ncc(Cl)c(-c4c[nH]c5ccccc45)n3)c2)cc1` , state whether its thermal shift delta Tm is at least 0.7 °C.
condition met

---

What thermal shift delta Tm was measured for each of the following?
System: LOC_OS01G02750-cb003
Assay: thermal shift delta Tm vs DMSO control; higher = stronger stabilization (binding)
Conditions: 12.5 µM; protein concentration 2 µM
Answer with a number only, understood to be in °C.

Tell us which thermal shift delta Tm value is on record for `C[C@@H](N)[C@H]1CC[C@H](C(=O)Nc2ccncc2)CC1`
0.15

Provide one value: measured thermal shift delta Tm of `COc1cc(OC)c(C=C2C(=O)Nc3ccccc32)c(OC)c1`
0.24

Return thermal shift delta Tm (reported value) for this compound: `COc1cc2c(cc1OC)[C@@H]1C(=O)c3ccc4c(c3O[C@@H]1CO2)C=CC(C)(C)O4`
0.45

Note down thermal shift delta Tm recorded for `Cc1ccc(NC(=O)c2cccc(C(C)(C)C#N)c2)cc1Nc1ccc2ncn(C)c(=O)c2c1`
0.97

Let me know recorded thermal shift delta Tm for `COc1ccc2c(Oc3ccc(NC(=O)c4c(C)n(CC(C)(C)O)n(-c5ccccc5)c4=O)nc3)ccnc2c1` , thanks.
1.62

Indicate the recorded thermal shift delta Tm value for this compound: COc1cc2nccc(Oc3ccc(NC(=O)C4(C(=O)Nc5ccc(F)cc5)CC4)cc3)c2cc1OC [Cabozantinib malate (XL184)]
0.45

In one line, give reported thermal shift delta Tm of the entry `CNC(=O)c1cccc(-c2ccc3c(N4CCOC[C@@H]4C)nc(N4CCOC[C@@H]4C)nc3n2)c1` .
0.19

Return the recorded thermal shift delta Tm value; entry: `CNC(=O)c1cc(Oc2ccc(NC(=O)Nc3cc(C(C)(C)C)nn3-c3ccc4ncccc4c3)c(F)c2)ccn1`
0.84
